# TARGET: ferroportin (Homo sapiens)
# PROTOCOL_DESCRIPTION: FPN activity assay: ferroportin-GFP internalization/degradation in HEK293 cells
# Format: cell-based
# Design: expressed in transfected cells
# TEST_SETTINGS: Table 6E; ferroportin-GFP internalization/degradation, at least 18 hours incubation; read-out: FPN IC50
Starred links: 1 amine or outer side, 2 acyl side, 3 side chain; linkers in the order of their positions; H or OH if unused. Positions of bridges follow the written chain, without caps; N, C: chain ends. Non-standard residues stand in square brackets, D forms with d. Residues, ends and D or L forms follow the SMILES beside them. Groups on a side chain read outwards from the residue. *: point of attachment. Glutaryl(2-isohexyl,5-OMe) = COC(=O)CCC(CCCC(C)C)C(=O)*; X1 = C[N+](C)(CCNC(=O)CCCCCCCCCCCCCCCCC(=O)O)CC(=O)*; X5 = CCCCCCCCCCCCCCCC(=O)NCC[N+](C)(C)CC(=O)*; Lys(Me3) = C[N+](C)(C)CCCC[C@H](N)C(=O)O; Dip = N[C@H](C(=O)O)C(c1ccccc1)c1ccccc1; NHCH2CHPh2 = c1ccc(C(CN*)c2ccccc2)cc1; Ethylenediamine = C(CN[*:2])N[*:1]; Palmitoyl = CCCCCCCCCCCCCCCC(=O)*; NMeK = CN[C@@H](CCCCN)C(=O)O; Isovaleryl = CC(C)CC(=O)*; Ahx = NCCCCCC(=O)O
PARAMETER: DC50

COC(=O)CC[C@H](NC(=O)CC(C)C)C(=O)N[C@H](C(=O)N[C@@H](Cc1c[nH]cn1)C(=O)N[C@H](C(=O)N1CCC[C@H]1C(=O)N[C@H]1CSSC[C@@H](C(=O)N(C)[C@@H](CCCCNC(=O)CCCCCNC(=O)C[N+](C)(C)CCNC(=O)CCCCCCCCCCCCCCCCC(=O)O)C(=O)N[C@H](C(=O)N[C@H](CCCCN)C(N)=O)C(c2ccccc2)c2ccccc2)NC1=O)C(c1ccccc1)c1ccccc1)[C@@H](C)OC [compound 147] (Isovaleryl-E(OMe)T(Me)H[Dip]PCC[NMeK]([Ahx-X1])[Dip][dK]-NH2; disulfide 6-7) | 10 to 100 nM
CCCCCCCCCCCCCCCC(=O)NCC[N+](C)(C)CC(=O)NCCCC[C@@H](C(=O)N[C@H](C(=O)N[C@H](CCCCN)C(N)=O)C(c1ccccc1)c1ccccc1)N(C)C(=O)[C@@H]1CSSC[C@H](NC(=O)[C@@H]2CCCN2C(=O)[C@@H](NC(=O)[C@H](Cc2cnc[nH]2)NC(=O)[C@@H](NC(=O)[C@H](CCC(=O)O)NC(=O)CC(C)C)[C@@H](C)O)C(c2ccccc2)c2ccccc2)C(=O)N1 [compound 194] (Isovaleryl-ETH[Dip]PCC[NMeK](X5)[Dip][dK]-NH2; disulfide 6-7) | 10 to 100 nM
COC(=O)CCC(CCCC(C)C)C(=O)N[C@H](C(=O)N[C@@H](Cc1c[nH]cn1)C(=O)N[C@H](C(=O)N1CCC[C@H]1C(=O)N[C@H]1CSSC[C@@H](C(=O)N[C@H](CCCCN)C(=O)N[C@H](C(=O)N[C@H](CCCCN)C(N)=O)C(c2ccccc2)c2ccccc2)NC1=O)C(c1ccccc1)c1ccccc1)[C@@H](C)O (stereo partly drawn) [compound 135] ({Glutaryl(2-isohexyl,5-OMe)}-TH[Dip]PCC[dK][Dip][dK]-NH2; disulfide 5-6) | 100 to 500 nM
CC(C)CC(=O)N[C@@H](CCC(=O)O)C(=O)N[C@H](C(=O)N[C@@H](Cc1c[nH]cn1)C(=O)N[C@H](C(=O)N1CCC[C@H]1C(=O)N[C@H]1CSSC[C@@H](C(=O)N[C@@H](CCCC[N+](C)(C)C)C(=O)N[C@H](C(N)=O)C(c2ccccc2)c2ccccc2)NC1=O)C(c1ccccc1)c1ccccc1)[C@@H](C)O [compound 141] (Isovaleryl-ETH[Dip]PCC[Lys(Me3)][Dip]-NH2; disulfide 6-7) | 10 to 100 nM
COC(=O)CCC(CCCC(C)C)C(=O)N[C@H](C(=O)N[C@@H](Cc1c[nH]cn1)C(=O)N[C@H](C(=O)N1CCC[C@H]1C(=O)N[C@H]1CSSC[C@@H](C(=O)N(C)[C@@H](CCCCNC(=O)CCCCCNC(=O)C[N+](C)(C)CCNC(=O)CCCCCCCCCCCCCCCCC(=O)O)C(=O)N[C@H](C(=O)N[C@H](CCCCN)C(N)=O)C(c2ccccc2)c2ccccc2)NC1=O)C(c1ccccc1)c1ccccc1)[C@@H](C)O (single isomer, unassigned) [compound 137] | 10 to 100 nM
CCCCCCCCCCCCCCCC(=O)NCCCC[C@H]1C(=O)N[C@@H](C(c2ccccc2)c2ccccc2)C(=O)N[C@@H](C(N)=O)CCCCNC(=O)CC[C@H](NC(=O)CC(C)C)C(=O)N[C@@H]([C@@H](C)O)C(=O)N[C@@H](Cc2c[nH]cn2)C(=O)N[C@@H](C(c2ccccc2)c2ccccc2)C(=O)N2CCC[C@H]2C(=O)N[C@H]2CSSC[C@H](NC2=O)C(=O)N1C [compound 142] (Isovaleryl-ETH[Dip]PCC[NMeK](Palmitoyl)[Dip][dK]-NH2; lactam 1-10; disulfide 6-7) | 1 to 10 nM
CCCCCCCCCCCCCCCC(=O)NCCCCCC(=O)NCCCC[C@@H](C(=O)NCC(c1ccccc1)c1ccccc1)N(C)C(=O)[C@@H]1CSSC[C@H](NC(=O)[C@@H]2CCCN2C(=O)[C@@H](NC(=O)[C@H](Cc2cnc[nH]2)NC(=O)[C@@H](NC(=O)[C@H](CCC(=O)O)NC(=O)CC(C)C)[C@@H](C)O)C(c2ccccc2)c2ccccc2)C(=O)N1 [compound 163] (Isovaleryl-ETH[Dip]PCC[NMeK]([Ahx-Palmitoyl])-NHCH2CHPh2; disulfide 6-7) | 10 to 100 nM
CCCCCCCCCCCCCCCC(=O)NCC[N+](C)(C)CC(=O)NCCCC[C@H]1C(=O)N[C@@H](C(c2ccccc2)c2ccccc2)C(=O)N[C@@H](C(N)=O)CCCCNC(=O)CC[C@H](NC(=O)CC(C)C)C(=O)N[C@@H]([C@@H](C)O)C(=O)N[C@@H](Cc2c[nH]cn2)C(=O)N[C@@H](C(c2ccccc2)c2ccccc2)C(=O)N2CCC[C@H]2C(=O)N[C@H]2CSSC[C@H](NC2=O)C(=O)N1C [compound 143] (Isovaleryl-ETH[Dip]PCC[NMeK](X5)[Dip][dK]-NH2; lactam 1-10; disulfide 6-7) | 10 to 100 nM

Proceed to the following item.
// Input: CCCCCCCCCCCCCCCC(=O)NCCCCCC(=O)NCCCC[C@H]1C(=O)N[C@@H](C(c2ccccc2)c2ccccc2)C(=O)NCCNC(=O)CC[C@H](NC(=O)CC(C)C)C(=O)N[C@@H]([C@@H](C)O)C(=O)N[C@@H](Cc2c[nH]cn2)C(=O)N[C@@H](C(c2ccccc2)c2ccccc2)C(=O)N2CCC[C@H]2C(=O)N[C@H]2CSSC[C@H](NC2=O)C(=O)N1C [compound 161] (Isovaleryl-ETH[Dip]PCC[NMeK]([Ahx-Palmitoyl])[Dip]; linker 1-C via Ethylenediamine; disulfide 6-7) . Output its DC50 only. 1 to 10 nM

###

# TARGET: ferroportin (Homo sapiens, UniProt Q9NP59)
# Sequence (Q9NP59 whole entry): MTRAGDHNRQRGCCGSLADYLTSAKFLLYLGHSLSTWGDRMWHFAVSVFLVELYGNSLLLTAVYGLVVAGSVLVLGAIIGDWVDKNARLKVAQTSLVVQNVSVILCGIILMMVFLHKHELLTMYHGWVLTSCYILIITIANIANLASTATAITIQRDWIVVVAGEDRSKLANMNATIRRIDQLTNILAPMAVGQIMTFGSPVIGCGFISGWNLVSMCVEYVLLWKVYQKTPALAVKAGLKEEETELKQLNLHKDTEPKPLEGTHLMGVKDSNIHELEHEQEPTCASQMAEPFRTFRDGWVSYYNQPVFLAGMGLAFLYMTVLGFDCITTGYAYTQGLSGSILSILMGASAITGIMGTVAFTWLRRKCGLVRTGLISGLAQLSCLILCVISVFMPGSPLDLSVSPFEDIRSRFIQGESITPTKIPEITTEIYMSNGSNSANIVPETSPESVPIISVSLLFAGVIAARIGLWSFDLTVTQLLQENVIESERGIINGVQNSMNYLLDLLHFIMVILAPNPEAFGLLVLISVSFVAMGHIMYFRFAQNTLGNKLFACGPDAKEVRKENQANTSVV
# PROTOCOL_DESCRIPTION: FPN activity assay: ferroportin-GFP internalization/degradation in HEK293 cells
# Format: cell-based
# Design: expressed in transfected cells
# TEST_SETTINGS: ferroportin-GFP internalization/degradation, HEK293 cells; Table 6E; read-out: FPN IC50
Positions of bridges follow the written chain, without caps; N, C: chain ends. Non-standard residues stand in square brackets, D forms with d. Residues, ends and D or L forms follow the SMILES beside them. Groups on a side chain read outwards from the residue. *: point of attachment. C18 diacid = O=C(O)CCCCCCCCCCCCCCCCC(=O)*; Dip = N[C@H](C(=O)O)C(c1ccccc1)c1ccccc1; β3hF = N[C@H](CC(=O)O)Cc1ccccc1; NMeK = CN[C@@H](CCCCN)C(=O)O; αMeK = C[C@](N)(CCCCN)C(=O)O; Isovaleryl = CC(C)CC(=O)*; Dap = NC[C@H](N)C(=O)O; AEEA = NCCOCCOCC(=O)O; Inp = O=C(O)C1CCNCC1
PARAMETER: DC50

CC(C)CC(=O)N[C@@H](CCC(=O)O)C(=O)N[C@H](C(=O)N[C@@H](Cc1c[nH]cn1)C(=O)N[C@H](C(=O)N1CCC[C@H]1C(=O)N[C@H]1CSSC[C@@H](C(=O)N[C@@](C)(CCCCNC(=O)COCCOCCNC(=O)COCCOCCNC(=O)[C@H](CN)NC(=O)CCCCCCCCCCCCCCCCC(=O)O)C(=O)N[C@H](CC(=O)N[C@H](CCCCN)C(N)=O)Cc2ccccc2)NC1=O)C(c1ccccc1)c1ccccc1)[C@@H](C)O [compound 302] (Isovaleryl-ETH[Dip]PCC[αMeK]([AEEA-AEEA-Dap-C18 diacid])[β3hF][dK]-NH2; disulfide 6-7) | 10 to 100 nM

// Input: C[C@@H](O)[C@H](NC(=O)[C@H](CCC(=O)O)NC(=O)C1CCNCC1)C(=O)N[C@@H](Cc1c[nH]cn1)C(=O)N[C@H](C(=O)N1CCC[C@H]1C(=O)N[C@H]1CSSC[C@@H](C(=O)N(C)[C@@H](CCCCNC(=O)COCCOCCNC(=O)COCCOCCNC(=O)[C@H](CN)NC(=O)CCCCCCCCCCCCCCCCC(=O)O)C(=O)N[C@H](CC(=O)N[C@H](CCCCN)C(N)=O)Cc2ccccc2)NC1=O)C(c1ccccc1)c1ccccc1 [compound 300] (H-[Inp]ETH[Dip]PCC[NMeK]([AEEA-AEEA-Dap-C18 diacid])[β3hF][dK]-NH2; disulfide 7-8) . Output its DC50 only. 100 to 500 nM

Origin of the recorded values: patent US20250277012A1
